assay-target: human Maxi K channel (BK channel), KCNMA1 (KCa1.1) and beta1 (KCNMB1) subunits (Homo sapiens, UniProt Q12791)
Construct: expressed in transfected cells; host or cells: CHO K1
Sequence (Q12791 1-1178 isoform Q12791-5): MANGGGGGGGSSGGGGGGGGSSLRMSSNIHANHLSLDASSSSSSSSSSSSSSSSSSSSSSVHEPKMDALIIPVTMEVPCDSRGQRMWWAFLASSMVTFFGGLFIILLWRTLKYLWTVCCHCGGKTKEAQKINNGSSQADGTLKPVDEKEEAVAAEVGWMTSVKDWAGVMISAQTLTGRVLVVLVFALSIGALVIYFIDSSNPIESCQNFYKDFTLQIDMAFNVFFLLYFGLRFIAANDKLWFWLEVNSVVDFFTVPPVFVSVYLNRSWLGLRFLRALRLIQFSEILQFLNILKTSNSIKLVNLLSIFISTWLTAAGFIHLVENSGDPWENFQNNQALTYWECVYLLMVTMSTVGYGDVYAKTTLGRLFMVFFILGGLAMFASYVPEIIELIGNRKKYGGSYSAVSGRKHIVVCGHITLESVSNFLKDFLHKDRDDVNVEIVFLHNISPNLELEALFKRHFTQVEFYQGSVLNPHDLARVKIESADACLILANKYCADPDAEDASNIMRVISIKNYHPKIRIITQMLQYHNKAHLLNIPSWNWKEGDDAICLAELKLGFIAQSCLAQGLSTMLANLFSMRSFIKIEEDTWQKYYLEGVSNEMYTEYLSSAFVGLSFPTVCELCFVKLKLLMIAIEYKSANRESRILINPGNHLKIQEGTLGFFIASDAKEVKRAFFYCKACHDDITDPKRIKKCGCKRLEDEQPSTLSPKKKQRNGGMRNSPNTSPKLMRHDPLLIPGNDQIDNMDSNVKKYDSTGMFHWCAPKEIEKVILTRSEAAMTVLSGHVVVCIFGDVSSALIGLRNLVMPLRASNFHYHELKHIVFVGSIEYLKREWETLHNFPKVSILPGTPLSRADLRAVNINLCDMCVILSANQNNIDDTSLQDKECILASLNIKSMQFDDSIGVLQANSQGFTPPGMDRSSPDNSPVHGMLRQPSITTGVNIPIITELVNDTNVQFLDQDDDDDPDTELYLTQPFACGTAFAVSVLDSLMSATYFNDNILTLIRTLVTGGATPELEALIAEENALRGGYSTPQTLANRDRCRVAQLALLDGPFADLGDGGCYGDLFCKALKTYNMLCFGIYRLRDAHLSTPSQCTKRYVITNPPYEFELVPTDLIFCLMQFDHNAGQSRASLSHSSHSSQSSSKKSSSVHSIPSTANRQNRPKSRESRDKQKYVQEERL
Sequence (Q16558 whole entry partner): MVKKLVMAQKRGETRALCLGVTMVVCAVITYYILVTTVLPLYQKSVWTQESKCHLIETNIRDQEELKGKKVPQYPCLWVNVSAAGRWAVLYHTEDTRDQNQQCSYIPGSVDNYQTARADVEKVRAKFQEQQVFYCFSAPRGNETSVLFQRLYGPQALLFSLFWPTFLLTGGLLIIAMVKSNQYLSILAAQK
protocol-description: Agonistic activity at the human Maxi K channel (BK channel), membrane potential (FLIPR) in transfected CHO K1 cells
Type: cell-based
run-conditions: membrane potential dye, 70 mM KCl
Recorded EC50 values for a group of compounds are listed next.

Below, each entry is followed by its recorded EC50 result.
compound	EC50
O=C(Nc1cnc2c(-c3cc(Cl)cc(Cl)c3)cccc2c1N1CCOCC1)C1CCc2ccccc21 (centres unmarked)	10 to 30 µM
O=C(Nc1cnc2c(-c3cc(Cl)cc(Cl)c3)cccc2c1O)c1cccc2ccccc12	> 30 µM
CN(C)c1c(NC(=O)C2CCOc3ccccc32)cnc2c(-c3cc(F)c(F)c(F)c3)cccc12 (centres unmarked)	> 30 µM
CC(C(=O)Nc1cnc2c(-c3cccc(Cl)c3Cl)cccc2c1N(C)C)c1cccc(Cl)c1 (centres unmarked)	> 30 µM
COCCN(C)c1c(NC(=O)C2CCCc3ccccc32)cnc2c(-c3cccc(Cl)c3Cl)cccc12 (centres unmarked)	> 30 µM
CN(CCO)c1c(NC(=O)C2CCCc3ccccc32)cnc2c(-c3cccc(Cl)c3Cl)cccc12 (centres unmarked)	10 to 30 µM
CCN(C(=O)C1CCOc2ccccc21)c1cnc2c(-c3cc(Cl)cc(Cl)c3)cccc2c1N1CCOCC1 (centres unmarked)	> 30 µM

Please look at the following compound next.
# input Item Cc1c(NC(=O)C2CCOc3ccccc32)cnc2c(-c3cc(Cl)cc(Cl)c3)cccc12 (centres unmarked) has what recorded EC50?
# output > 30 µM
